system: Plasmodium falciparum; assay: GSK_TCMDC: Inhibition of Plasmodium falciparum Dd2 in whole red blood cells, using parasite LDH activity as an index of growth. Test compounds present at 2uM; type: functional
Kindly supply the reported Inhibition values for the records listed here.

Q. Given the molecule COc1ccc2[nH]cc(C3CCN(Cc4ccc(NC(=O)c5ccc(-c6ccccc6)cc5)cc4)CC3)c2c1 , write its reported Inhibition.
A. 72%

Q. Given the molecule CC(Cc1ccc(Sc2ccccc2)cc1)NCC(O)c1cccc(C(F)(F)F)c1 (stereo unspecified) , write its reported Inhibition.
A. 53%

Q. Given the molecule CC[C@H]1CN2CC[C@H]1C[C@H]2C(O)c1cc(OC)nc2ccccc12 (stereo partly specified) , write its reported Inhibition.
A. 98%

Q. Given the molecule O=C(/C=C/c1cc([N+](=O)[O-])ccc1Cl)NC1CCC(CN2CCC(c3c[nH]c4ccccc34)CC2)CC1 (stereo unspecified) , write its reported Inhibition.
A. 94%

Q. Given the molecule O=C(/C=C/c1cc(F)c(F)cc1F)N1CCC(CN2CCC(c3c[nH]c4ccccc34)CC2)CC1 , write its reported Inhibition.
A. 3%

Q. Given the molecule CNCCCN(C)C(=O)Oc1c(Br)c(C)nc(C)c1-c1ccc(Oc2ccc(OC(F)(F)F)cc2)cc1.Cl , write its reported Inhibition.
A. 96%

---

tested on: Plasmodium falciparum; assay: GSK_TCMDC: Inhibition of Plasmodium falciparum Dd2 in whole red blood cells, using parasite LDH activity as an index of growth. Test compounds present at 2uM; assay type: functional
The threshold is inclusive: Inhibition of exactly 50% counts as yes; values below receive no.

Q. Does Inhibition meet or surpass 50% for CN1C(=O)[C@H](NC(=O)[C@@H](Cc2ccccc2)NC(=S)Nc2ccccc2)N=C(c2ccccc2)c2ccccc21 ?
A. no

Q. Does Inhibition meet or surpass 50% for COc1cc(C=CC(=O)N2CCC(CN3CCC(c4c[nH]c5ccccc45)CC3)CC2)cc(OC)c1 ?
A. no

Q. Does Inhibition meet or surpass 50% for O=C(/C=C/c1ccc(Cl)c(Cl)c1)N1CCC(CN2C3CCC2CC(c2c[nH]c4ccccc24)C3)CC1 (stereo not given) ?
A. yes

Q. Does Inhibition meet or surpass 50% for CC(=O)C1(c2ccccc2)CCN(CCC2(c3ccc(Cl)c(Cl)c3)CN(C(=O)Nc3cc(F)cc(F)c3)CCO2)CC1 (stereo not given) ?
A. no

Q. Does Inhibition meet or surpass 50% for C/C=C1\CN2CC[C@H]1C[C@@H]2[C@@H](O)c1ccnc2ccc(O)cc12 ?
A. no

Q. Does Inhibition meet or surpass 50% for Br.CC[C@H]1CN2CC[C@H]1C[C@H]2[C@H](O)c1ccnc2ccc(C#N)cc12 ?
A. yes

Q. Does Inhibition meet or surpass 50% for Cc1cc(N)nc2ccc(CNCCc3ccccc3Br)cc12.Cl ?
A. yes

Q. Does Inhibition meet or surpass 50% for COc1c(F)cc(CC(C)NCC(O)c2cccc(Cl)c2)cc1F.Cl (stereo not given) ?
A. yes

Q. Does Inhibition meet or surpass 50% for CC[C@H]1CN2CC[C@H]1C[C@H]2[C@H](O)c1cc(-c2ccc(C)cc2)nc2ccc(OC)cc12.Cl ?
A. yes

---

tested on: Plasmodium falciparum; test: GSK_TCMDC: Inhibition of Plasmodium falciparum 3D7 in whole red blood cells, using parasite LDH activity as an index of growth. Test compounds present at 2uM; assay type: functional
measured_endpoint: Inhibition (%)
Give the quantity in %, number only.

Q. Given the compound COc1cccc(C2(NC[C@@H](O)[C@H](Cc3ccccc3)NC(=O)c3ccccc3)CCCCC2)c1 , write its reported Inhibition.
A. 97

Q. Given the compound COCCNCc1cccc(-c2cccc(CN(C(=O)Nc3ccccc3)C3CCN(Cc4ccccc4)CC3)c2)c1.O=C(O)C(F)(F)F , write its reported Inhibition.
A. 100

Q. Given the compound FC(F)(F)c1cccc(N2CCC(CN3CCC(c4c[nH]c5ccccc45)CC3)CC2)n1.O=C(O)C(F)(F)F , write its reported Inhibition.
A. 84

Q. Given the compound COCCNCc1cccc(-c2ccc(CN(C(=O)Nc3ccccc3)C3CCN(Cc4ccccc4)CC3)cc2)c1.O=C(O)C(F)(F)F , write its reported Inhibition.
A. 100

Q. Given the compound CCc1ccc(CC(C)NCC(O)c2ccccc2)cc1.O (centres undefined) , write its reported Inhibition.
A. 89

Q. Given the compound Cc1ccc(C)c(C=CC(=O)NC2CCC(CN3CCC(c4c[nH]c5ccccc45)CC3)CC2)c1 (centres undefined) , write its reported Inhibition.
A. 100

Q. Given the compound CN(Cc1ccccc1)C1CCN(CCc2c[nH]c3ccc(F)cc23)CC1.O=C(O)C(F)(F)F , write its reported Inhibition.
A. 100

Q. Given the compound O=C(/C=C/c1ccc(Cl)c(Cl)c1)N1CCC(CN2CCC(c3c[nH]c4cc(C(F)(F)F)ccc34)CC2)CC1 , write its reported Inhibition.
A. 99

Q. Given the compound O=C(CCc1ccco1)NC1CCN(CC2(c3ccc(Cl)cc3)CCC2)CC1 , write its reported Inhibition.
A. 99

Q. Given the compound CN(C)CCCn1cc(C(=O)OC2CC3CCC(C2)N3C)c2cc(-c3ccccc3)ccc21.Cl (centres undefined) , write its reported Inhibition.
A. 97

Q. Given the compound CSc1ccc(C[C@@H](C)NC[C@H](O)c2cccc(Cl)c2)cc1.Cl , write its reported Inhibition.
A. 97

Q. Given the compound Cc1[nH]c2ccc(O)cc2c1C1CCN(CC2CCC(NC(=O)/C=C/c3ccc(Cl)c(Cl)c3)CC2)CC1 (centres undefined) , write its reported Inhibition.
A. 100

Q. Given the compound Cl.N[C@@H](CCN1CCC(c2cccc(O)c2)CC1)Cc1ccc(F)c(F)c1 , write its reported Inhibition.
A. 92

Q. Given the compound CC(=O)C1(c2ccccc2)CCN(CCC2(c3ccc(Cl)c(Cl)c3)CN(C(=O)C3CCCC3)CCO2)CC1 (centres undefined) , write its reported Inhibition.
A. 88

Q. Given the compound CCC1(C)CC(CCNCc2ccccc2O)(c2ccc(C)cc2)CCO1 (centres undefined) , write its reported Inhibition.
A. 97

Q. Given the compound CC[C@H]1CN2CCc3cc(OC)c(OC)cc3[C@@H]2C[C@@H]1C[C@H]1NCCc2c1cc(OC)c(O)c2Cl , write its reported Inhibition.
A. 100

Q. Given the compound Cc1ccc(CC(C)NCC(O)c2cccc(C(F)(F)F)c2)c(C)c1.Cl (centres undefined) , write its reported Inhibition.
A. 99

Q. Given the compound CCC1(C)CC(CCNCc2ccccc2O)(c2ccc(F)cc2)CCO1 (centres undefined) , write its reported Inhibition.
A. 98

Q. Given the compound COC(=O)/C=C/c1ccc(CC(C)NCC(O)c2cccc(C(F)(F)F)c2)cc1 (centres undefined) , write its reported Inhibition.
A. 97

---

system: Plasmodium falciparum; experiment: GSK_TCMDC: Inhibition of Plasmodium falciparum Dd2 in whole red blood cells, using parasite LDH activity as an index of growth. Test compounds present at 2uM; format: functional
Kindly supply the reported Inhibition values for the records listed here.
Give the quantity in %, number only.

Q. // output Inhibition; input CC(Cc1ccc(-c2nc3ccccc3[nH]2)cc1)NCC(O)c1cccc(C(F)(F)F)c1 (configuration not stated) ; system Plasmodium falciparum
A. 90

Q. // output Inhibition; input COC(=O)c1ccc(CC(C)NCC(O)c2cccc(C(F)(F)F)c2)cc1F.Cl (configuration not stated) ; system Plasmodium falciparum
A. 47

Q. // output Inhibition; input CC(C)(C)c1cc(/C=C/C(=O)NC2CCC(CN3CCC(c4c[nH]c5ccccc45)CC3)CC2)cc(C(C)(C)C)c1O (configuration not stated) ; system Plasmodium falciparum
A. 100

Q. // output Inhibition; input CC[C@H]1CN2CC[C@H]1C[C@H]2[C@H](O)c1cc(-c2ccc3ccccc3c2)nc2ccc(OC)cc12.Cl ; system Plasmodium falciparum
A. 99

Q. // output Inhibition; input CC1=CC(=O)[C@@H](O)[C@]2(C)[C@H]3[C@@]4(O)OC[C@@]35[C@@H](C[C@@H]12)OC(=O)C[C@H]5[C@@H](C)[C@H]4O ; system Plasmodium falciparum
A. 98

Q. // output Inhibition; input Cc1[nH]c2ccccc2c1C1=CCN(CCN2CCCc3c(Br)cccc3C2=O)CC1 ; system Plasmodium falciparum
A. 90

Q. // output Inhibition; input CC(C)CNCc1ccc(-c2ccc(CN(C(=O)NC3CCCCC3)C3CCN(Cc4ccccc4)CC3)cc2)cc1.O=C(O)C(F)(F)F ; system Plasmodium falciparum
A. 88

---

test system: HepG2; assay: GSK_TCMDC: Percent inhibition of human HepG2 cell line. Test compounds present at 10uM.; type: functional
measured_endpoint: Inhibition (%)
Give the quantity in %, number only.

Q. // output Inhibition; input O=C(O)C(F)(F)F.OC1(CNCc2ccccc2)CCN(CCc2c[nH]c3ccc(F)cc23)CC1 ; system HepG2
A. 39

Q. // output Inhibition; input COC(=O)c1ccc(CC(C)NCC(O)c2ccc(F)c(Cl)c2)cc1.Cl (stereo not given) ; system HepG2
A. 0

Q. // output Inhibition; input CN1C2CCC1c1cc(NC(=O)c3cc(-c4ccc(Cl)cc4)cs3)ccc12.O=C(O)C(F)(F)F (stereo not given) ; system HepG2
A. 62

Q. // output Inhibition; input Cc1[nH]c2ccc(NS(C)(=O)=O)cc2c1C1CCN(CC2CCN(C(=O)/C=C/c3ccc(Cl)c(Cl)c3)CC2)CC1 ; system HepG2
A. 15

Q. // output Inhibition; input O=[N+]([O-])c1ccc(Oc2c(Cl)cc(S(=O)(=O)N3CCC(CN4CCC(c5c[nH]c6ccccc56)CC4)CC3)cc2Cl)c(Cl)c1 ; system HepG2
A. 43

Q. // output Inhibition; input CC(Cc1ccc(OCCCCOc2ccccc2)cc1)NCCCN1CCOCC1 (stereo not given) ; system HepG2
A. 98

Q. // output Inhibition; input O=C(NC1CCC(CN2CCC(c3c[nH]c4ccccc34)CC2)CC1)c1ccc(-c2cc(C(F)(F)F)ccc2Cl)o1 (stereo not given) ; system HepG2
A. 5

Q. // output Inhibition; input O=C(NC1CCC(CN2CCC(c3c[nH]c4ccccc34)CC2)CC1)c1cc(-c2ccccc2Cl)n(-c2cccc(Cl)c2)n1 (stereo not given) ; system HepG2
A. 58

Q. // output Inhibition; input C#CCN1CCC2=C(C1)c1c(O)cc(C(C)C(C)CCc3ccc(F)cc3)cc1OC2(C)C (stereo not given) ; system HepG2
A. 10

Q. // output Inhibition; input O=C(NCc1ccccc1)c1nn(CCCN2CCC3(CC2)C(=O)NCN3c2ccccc2)cc1-c1ccc(Cl)c(Cl)c1 ; system HepG2
A. 6

Q. // output Inhibition; input Oc1ccccc1CN1CCC(CCOC(c2ccccc2)c2ccc(Cl)cc2)CC1 (stereo not given) ; system HepG2
A. 19

Q. // output Inhibition; input CCN(CC)CCN1C(=O)C(O)(c2ccccc2Cl)c2c1cc(C(N)=O)cc2C(F)(F)F.Cl (stereo not given) ; system HepG2
A. 16

Q. // output Inhibition; input C/C=C1/CN2CC[C@H]1C[C@H]2[C@H](O)c1ccnc2ccc(OC)cc12 ; system HepG2
A. 0

Q. // output Inhibition; input CCCC(=O)c1c(O)c2ccccc2oc1=O ; system HepG2
A. 11

Q. // output Inhibition; input CC(Cc1ccc(SC(C)C)cc1)NCC(O)c1cccc(Cl)c1.Cl (stereo not given) ; system HepG2
A. 5
